Experiment: Multi-compartmental brain PK model fitted to rat plasma and microdialysis (brainECF, CSF) data
Format: in vivo
Settings: parameter estimate (RSE, %)
Listed compounds paired with reported VPL, distribution volume of the central compartment

Examples with answers:
CN(Cc1cnc2nc(N)nc(N)c2n1)c1ccc(C(=O)N[C@@H](CCC(=O)O)C(=O)O)cc1 [Methotrexate] = 51.2 (20.3) mL
Cc1nc2n(c(=O)c1CCN1CCC(c3noc4cc(F)ccc34)CC1)CCCC2O (stereo not shown) = 28400 (8.00) mL

Enquiry: Give VPL, distribution volume of the central compartment for the following compound: CC(=O)Nc1ccc(O)cc1
Return: 65.7 (25.4) mL

Enquiry: Give VPL, distribution volume of the central compartment for the following compound: O=C1NC(=O)C(c2ccccc2)(c2ccccc2)N1
Return: 2890 (7.90) mL

Recorded values, source paper PMC5236087.
